test system: HaCat; test: Cytotoxic Profiling of Annotated Libraries Using Quantitative High-Throughput Screening (AID 1296008); conditions: Five cell lines viability, CellTiter-Glo ATP luminescence, 48-72 h; further: nearly all actives have a fitted effect of over 60% in size
Results filed as inconclusive are left out. The source made the active and inactive calls. The call rests on the fitted dose curve; in most records, active means well fitted inhibition curve with a large enough effect; inconclusive means small, poorly fitted or top-dose-only effect; inactive means flat fitted curve, though single readings scatter.
Possible outcomes: active, inactive

CO[C@H]1C=CC=C(C)C(=O)NC2=CC(=O)C(NCCN(C)C)=C(C[C@@H](C)C[C@H](OC)[C@@H](O)[C@@H](C)C=C(C)[C@@H]1OC(N)=O)C2=O
active
Cc1ccccc1C(C(=O)NC1CCCCC1)N(C(=O)Cn1ccnc1C)c1cccc(F)c1 (stereo not given)
inactive
CON=C(C(=O)N[C@@H]1C(=O)N2C(C(=O)OCOC(=O)C(C)(C)C)=C(C=Cc3scnc3C)CS[C@H]12)c1csc(N)n1
inactive
CCN(CC)CCOC(=O)c1ccc(N)cc1
inactive
O=C(NCc1ccccc1)c1csc(Nc2ccncn2)n1
inactive
CC(C)(C)COc1ccc(-n2cc(C(=O)O)cn2)cc1C#N
inactive
CC1CCC(C(=O)N(c2cc(C#CC(C)(C)C)sc2C(=O)O)C2CCC(O)CC2)CC1 (stereo not given)
inactive
NCCS
inactive
O=C(NC1CCOCC1)c1ccc(-c2cc(-c3cn[nH]c3-c3ccccn3)ccn2)cc1
inactive
NC(CO)(CO)CCc1ccc(Sc2cccc(OCc3ccccc3)c2)cc1Cl
active

Every entry's value here was drawn from PubChem BioAssay (NCATS).
